Species on record: Rattus norvegicus
Test: Open TG-GATES - Regimen: Single
Type: toxicity, organism-based, Sprague-Dawley
Design: regimen Single, gender Male, age 6 weeks
Conditions: in vivo, po, 0 mg/kg, 9 h, tissue Plasma, route gavage, dose level Control
So I've got a bunch of compounds here, and I need their GLC values.
One number for each entry, in mg/dL.

| compound | parameter.measured | value.units | numeric.result |
| --- | --- | --- | --- |
| NC(=O)N1c2ccccc2C=Cc2ccccc21 [CARBAMAZEPINE] | GLC | mg/dL | 202.8 |

// batch mode: one GLC value per listed entry
1. C[C@H](CS)C(=O)N1CCC[C@H]1C(=O)O
2. O=C(O)c1cn(C2CC2)c2cc(N3CCNCC3)c(F)cc2c1=O

200
193

Record GLC for all entries; do not skip any.
1. Clc1ccccc1CN1CCc2sccc2C1
2. CC(=O)Oc1ccccc1C(=O)O

1: 193.8; 2: 206.6

Please look at the items below and tell me GLC for each one, in order.
1. CSc1ccc2c(c1)N(CCC1CCCCN1C)c1ccccc1S2 (configuration not stated)
2. NC(=O)N/N=C/c1ccc([N+](=O)[O-])o1
3. O=C(O)c1cc(/N=N/c2ccc(S(=O)(=O)Nc3ccccn3)cc2)ccc1O

1. 197.6
2. 169
3. 207.2

---

Organism: Rattus norvegicus
Assay: Open TG-GATES - Regimen: Single
Type: toxicity, organism-based, Sprague-Dawley
Design: regimen Single, gender Male, age 6 weeks
Conditions: in vivo, po, 300 mg/kg, 6 h, tissue Plasma, route gavage, dose level Middle
Provide the recorded IP for the entries that follow.
One number for each entry, in mg/dL.

Past entries and their recorded results:
| molecule | value.units | IP |
| --- | --- | --- |
| CCc1cc(C(N)=S)ccn1 [ETHIONAMIDE] | mg/dL | 9.8 |
| Clc1ccccc1CN1CCc2sccc2C1 | mg/dL | 10 |
| O=C(O)c1cn(C2CC2)c2cc(N3CCNCC3)c(F)cc2c1=O | mg/dL | 10.3 |

Moving on to another molecule below.
Recorded IP of O=C(O)c1cc(/N=N/c2ccc(S(=O)(=O)Nc3ccccn3)cc2)ccc1O , please.
9.5

---

Species: Rattus norvegicus
Assay: Open TG-GATES - Regimen: Single
Assay type: toxicity, organism-based, Sprague-Dawley
Parameters: regimen Single, gender Male, age 6 weeks
Details: in vivo, po, 300 mg/kg, 6 h, tissue Blood, route gavage, dose level Middle
parameter.measured: MCH (pg)
Numbers only, in pg.

Example entries begin here.
| compound | value.units | numeric.result |
| --- | --- | --- |
| C[C@H](CS)C(=O)N1CCC[C@H]1C(=O)O [CAPTOPRIL] | pg | 21 |
| Clc1ccccc1CN1CCc2sccc2C1 [TICLOPIDINE] | pg | 21.1 |
| O=C(O)c1cn(C2CC2)c2cc(N3CCNCC3)c(F)cc2c1=O [CIPROFLOXACIN] | pg | 22.1 |
| O=C(O)c1cc(/N=N/c2ccc(S(=O)(=O)Nc3ccccn3)cc2)ccc1O [SULFASALAZINE] | pg | 21.4 |

Next compound, MCH to be filled in.
Item under review: CCc1cc(C(N)=S)ccn1 [ETHIONAMIDE] . Reported MCH?
21.8

---

Task for the reader: assign each of the following compounds its reported KIDNEY_R.
Organism: Rattus norvegicus
Experiment: Open TG-GATES - Regimen: Single
Format: toxicity, organism-based, Sprague-Dawley
Design: regimen Single, gender Male, age 6 weeks
Conditions: in vivo, po, 100 mg/kg, 24 h, tissue Kidney, route gavage, dose level Low
Please format your answer as a value with the unit trailing.

Working through the 3 compounds below one at a time, give KIDNEY_R for each.
1. Clc1ccccc1CN1CCc2sccc2C1 [TICLOPIDINE]
2. CCc1cc(C(N)=S)ccn1 [ETHIONAMIDE]
3. O=C(O)c1cn(C2CC2)c2cc(N3CCNCC3)c(F)cc2c1=O [CIPROFLOXACIN]

1: 1 g; 2: 1.1 g; 3: 0.9 g

The following compounds each have a reported value; give each one's KIDNEY_R.
1. O=C(O)c1cc(/N=N/c2ccc(S(=O)(=O)Nc3ccccn3)cc2)ccc1O [SULFASALAZINE]
2. C[C@H](CS)C(=O)N1CCC[C@H]1C(=O)O [CAPTOPRIL]

1: 1 g; 2: 1.1 g

---

Species on record: Rattus norvegicus
Assay: Open TG-GATES - Regimen: Single
Format: toxicity, organism-based, Sprague-Dawley
Design: regimen Single, gender Male, age 6 weeks
Conditions: in vivo, po, 100 mg/kg, 24 h, tissue Plasma, route gavage, dose level Low
parameter.measured: ALP (IU/L)
One number for each entry, in IU/L.

| compound | ALP [IU/L] |
| --- | --- |
| O=C(O)c1cc(/N=N/c2ccc(S(=O)(=O)Nc3ccccn3)cc2)ccc1O | 1020.4 |

Consider the following items and state reported ALP for each.
1. Clc1ccccc1CN1CCc2sccc2C1
2. O=C(O)c1cn(C2CC2)c2cc(N3CCNCC3)c(F)cc2c1=O

[1052.4, 953.6]

Query: ALP; subject: CCc1cc(C(N)=S)ccn1 [ETHIONAMIDE]
884.8

---

Species on record: Rattus norvegicus
Assay: Open TG-GATES - Regimen: Single
Type: toxicity, organism-based, Sprague-Dawley
Set-up: regimen Single, gender Male, age 6 weeks
Conditions: in vivo, po, 100 mg/kg, 3 h, route gavage, dose level Low
I would appreciate it if you labelled entries yes when TERMINAL_BW is 200 g or higher, otherwise no.

Some solved entries appear below for comparison.
| compound | group.label |
| --- | --- |
| CCc1cc(C(N)=S)ccn1 [ETHIONAMIDE] | yes |
| O=C(O)c1cn(C2CC2)c2cc(N3CCNCC3)c(F)cc2c1=O [CIPROFLOXACIN] | no |
| Clc1ccccc1CN1CCc2sccc2C1 [TICLOPIDINE] | yes |
| C[C@H](CS)C(=O)N1CCC[C@H]1C(=O)O [CAPTOPRIL] | yes |

Consider now this further compound.
Please indicate if the recorded TERMINAL_BW for O=C(O)c1cc(/N=N/c2ccc(S(=O)(=O)Nc3ccccn3)cc2)ccc1O [SULFASALAZINE] meets or exceeds 200 g.
yes

---

For each entry below, report its ALP value.
Organism: Rattus norvegicus
Experiment: Open TG-GATES - Regimen: Single
Assay type: toxicity, organism-based, Sprague-Dawley
Design: regimen Single, gender Male, age 6 weeks
Conditions: in vivo, po, 300 mg/kg, 6 h, tissue Plasma, route gavage, dose level Middle
Answers are plain numbers, in IU/L.

# map each molecule to its ALP
1. O=C(O)c1cn(C2CC2)c2cc(N3CCNCC3)c(F)cc2c1=O
2. Clc1ccccc1CN1CCc2sccc2C1
3. C[C@H](CS)C(=O)N1CCC[C@H]1C(=O)O
4. O=C(O)c1cc(/N=N/c2ccc(S(=O)(=O)Nc3ccccn3)cc2)ccc1O

[804.2, 909.6, 734.8, 961.6]

Tell me the measured ALP of CCc1cc(C(N)=S)ccn1 [ETHIONAMIDE] , please.
845.6

---

Species on record: Rattus norvegicus
Test: Open TG-GATES - Regimen: Single
Assay type: toxicity, organism-based, Sprague-Dawley
Set-up: regimen Single, gender Male, age 6 weeks
Conditions: in vivo, po, 0 mg/kg, 3 h, tissue Plasma, route gavage, dose level Control
parameter.measured: DBIL (mg/dL)
Answers are plain numbers, in mg/dL.

For each listed entry, give its DBIL.
1. NC(=O)N1c2ccccc2C=Cc2ccccc21 [CARBAMAZEPINE]
2. CSc1ccc2c(c1)N(CCC1CCCCN1C)c1ccccc1S2 (configuration not stated) [THIORIDAZINE]
3. CCc1cc(C(N)=S)ccn1 [ETHIONAMIDE]

[0.082, 0.006, 0.006]

Quick batch: DBIL for everything below.
1. CC(=O)Oc1ccccc1C(=O)O [ASPIRIN]
2. NC(=O)N/N=C/c1ccc([N+](=O)[O-])o1 [NITROFURAZONE]
3. COc1ccc(Cc2nccc3cc(OC)c(OC)cc23)cc1OC [PAPAVERINE]
4. Cn1c(=O)c2[nH]cnc2n(C)c1=O.O [THEOPHYLLINE]
5. O=C(O)c1cn(C2CC2)c2cc(N3CCNCC3)c(F)cc2c1=O [CIPROFLOXACIN]

0.066
0.012
0
0
0.008

---

Species on record: Rattus norvegicus
Assay: Open TG-GATES - Regimen: Single
Type: toxicity, organism-based, Sprague-Dawley
Parameters: regimen Single, gender Male, age 6 weeks
Conditions: in vivo, po, 1000 mg/kg, 6 h, tissue Liver, route gavage, dose level High
Please respond with reported LIVER for every item in the list.
One number for each entry, in g.

// below: answered compounds
| compound | LIVER, g |
| --- | --- |
| CCc1cc(C(N)=S)ccn1 [ETHIONAMIDE] | 10.4 |
| O=C(O)c1cn(C2CC2)c2cc(N3CCNCC3)c(F)cc2c1=O | 7.9 |

Please give LIVER for each item listed below.
1. C[C@H](CS)C(=O)N1CCC[C@H]1C(=O)O
2. Clc1ccccc1CN1CCc2sccc2C1
3. O=C(O)c1cc(/N=N/c2ccc(S(=O)(=O)Nc3ccccn3)cc2)ccc1O

[9.6, 8.7, 9]
